Molecular target: Tyrosinase (Agaricus bisporus, UniProt O42713)
Sequence (O42713 whole entry): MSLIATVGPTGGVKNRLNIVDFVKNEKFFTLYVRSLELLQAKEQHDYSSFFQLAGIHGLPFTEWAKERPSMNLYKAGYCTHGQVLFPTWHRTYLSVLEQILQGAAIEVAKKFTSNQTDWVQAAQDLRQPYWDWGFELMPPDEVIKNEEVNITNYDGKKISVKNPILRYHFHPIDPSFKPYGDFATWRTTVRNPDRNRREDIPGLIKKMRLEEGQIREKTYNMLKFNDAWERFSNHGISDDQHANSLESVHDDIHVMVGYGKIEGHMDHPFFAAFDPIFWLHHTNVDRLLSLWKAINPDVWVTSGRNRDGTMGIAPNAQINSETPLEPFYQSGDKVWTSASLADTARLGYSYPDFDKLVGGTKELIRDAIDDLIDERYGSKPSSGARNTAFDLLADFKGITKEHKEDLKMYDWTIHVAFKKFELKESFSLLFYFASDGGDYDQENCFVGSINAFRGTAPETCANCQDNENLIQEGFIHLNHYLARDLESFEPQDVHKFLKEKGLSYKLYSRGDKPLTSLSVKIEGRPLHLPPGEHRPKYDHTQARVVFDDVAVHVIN
Experiment: Mixed-type reversible inhibition of diphenolase activity of mushroom tyrosinase using L-DOPA as substrate by Lineweaver-Burk double reciprocal-plot analysis

input-smiles	Ki
Oc1nc(-c2ccc(F)cc2)nc2ccccc12	703 µM

* * *

Molecular target: Tyrosinase (Agaricus bisporus, UniProt O42713)
Sequence (O42713 whole entry): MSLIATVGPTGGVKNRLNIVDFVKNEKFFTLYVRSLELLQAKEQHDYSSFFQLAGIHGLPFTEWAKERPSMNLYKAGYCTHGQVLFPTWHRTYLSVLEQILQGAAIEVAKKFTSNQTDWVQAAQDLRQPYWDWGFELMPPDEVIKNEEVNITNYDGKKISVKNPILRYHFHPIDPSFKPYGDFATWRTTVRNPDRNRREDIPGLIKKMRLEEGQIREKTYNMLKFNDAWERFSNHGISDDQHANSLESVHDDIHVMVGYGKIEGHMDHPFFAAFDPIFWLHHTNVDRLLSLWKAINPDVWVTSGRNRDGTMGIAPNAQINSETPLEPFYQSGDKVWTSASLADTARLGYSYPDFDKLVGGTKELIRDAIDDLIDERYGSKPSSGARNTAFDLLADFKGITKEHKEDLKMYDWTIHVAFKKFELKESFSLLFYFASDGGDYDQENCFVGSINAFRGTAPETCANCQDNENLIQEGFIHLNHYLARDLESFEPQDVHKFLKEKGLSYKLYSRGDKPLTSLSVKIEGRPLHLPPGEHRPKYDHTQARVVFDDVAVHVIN
Experiment: Mixed-type reversible inhibition of diphenolase activity of mushroom tyrosinase assessed as enzyme-substrate complex using L-DOPA as substrate by Lineweaver-Burk double reciprocal plot analysis
assay-metric: Ki (µM)

input-smiles	value
Oc1nc(-c2ccc(F)cc2)nc2ccccc12	222
